// reported relative integration efficiency (log2) for each item listed
B1: library; a variant is named by its letters at N, in order (parent)
chain: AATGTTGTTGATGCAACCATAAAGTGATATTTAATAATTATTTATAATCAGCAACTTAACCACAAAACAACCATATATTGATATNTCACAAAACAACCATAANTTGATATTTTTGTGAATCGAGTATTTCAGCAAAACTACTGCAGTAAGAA

- Variants of: B1
- Assay text: relative integration efficiency (T-RL orientation) vs wild-type transposon end (log2 (normalized fold change)); transposon end mutated: left end; higher = more efficient transposition
- Settings: with VchCAST RNA-guided transposition machinery (E. coli BL21(DE3) host, lacZ target)
Recorded endpoint: relative integration efficiency (log2)

>>> reported("CG T120G C121A G122T A123C G124T T125G")
0.166
>>> reported("CG A65T A66T")
0.107
>>> reported("CG T113G T114G G115T T116G G117T A118C A119C T120G C121A G122T A123C G124T T125G")
-0.0695
>>> reported("CG C68G A69T A70T C71G")
-1.93
>>> reported("CG A22T")
0.0984
>>> reported("TG T76A T78A T84A C87A")
-0.028
>>> reported("CG A29T A83T A109T")
-0.428
>>> reported("CG A101G")
-1.22
>>> reported("TA A22T G24T T31C A33C T76A A77G C87T A96C T110A T113A")
-0.753
>>> reported("CA G24A T30A A102T T111C T113C")
-0.31
>>> reported("CG T43G")
-0.28
>>> reported("CG A11T")
-0.00672
>>> reported("CG A15T A69T A95T")
-1.31
>>> reported("CG A62T")
1.17
>>> reported("CG A53T A54T C55G T56A")
-0.413
>>> reported("CA A96C T110A T113A")
0.00902
>>> reported("CG A66C A67C C68A A69C")
-0.685
>>> reported("CG T45C T48C G51T C52A C55G T57G A59T C60A C61T A62T C63T A66C A67T")
-5.71
>>> reported("CG T100C")
-1.27
>>> reported("CG A58T A59T C60G C61G")
-0.275
>>> reported("CG G51A")
0.302
>>> reported("CC A23T G24C A77T T78A T104A")
-0.611
>>> reported("CG A47T T48A")
0.341
>>> reported("TA A16C G24T T30A A70C T76A T86G A96C T110A T113A")
-0.213
>>> reported("CG T100A A101T")
-0.364
>>> reported("CG A22G")
-0.733
>>> reported("CG A44C T45G A46C A47C")
-0.21
>>> reported("CG A47C T48G C49A A50C")
-1.5
>>> reported("CG A21C A22C")
-1.82
>>> reported("CG C60G C61G A62T C63G")
-0.0479
>>> reported("CG A66C")
-0.147
>>> reported("TA G24A T30A T76A T78A T84A C87A A102T T111C T113C")
-0.0919
>>> reported("CC A102T T104A T105A")
-0.322
>>> reported("CG C61G")
-0.191
>>> reported("CG C89G A90T")
0.378
>>> reported("CG T25G G26T A27C T28G")
-2.55
>>> reported("CG A64C")
-0.0626
>>> reported("CG G13T")
0.0664
>>> reported("CG T5G")
0.0254
>>> reported("CG G7C")
-0.11
>>> reported("CA A16C G24T T30A A96C T110A T113A")
-0.208
>>> reported("CG A15C A16C C17A C18A")
-1.89
>>> reported("CG A93G")
-0.207
>>> reported("CG C87A A88C")
-0.00605
>>> reported("CG T28G A29C")
-1.24
>>> reported("TA A70C T76A T86G A102T T111C T113C")
-0.418
